# testTarget: Fuc(a1-3)GlcNAc
# procedureSummary: glycan array binding signal (z-score within array); higher = stronger binding
# runParameters: glycan notation: IUPAC condensed, linker removed
Only a selection was taken, and the strongest signals are over-represented in it overall.
Answer each item with its documented glycan array binding signal (z-score).
Give the figure by itself; no unit, no explanation.

Identify glycan array binding signal (z-score) associated with the binder X56-1 (Clostridium perfringens), P26831 (protein) MGSSHHHHHHSSGLVPRGSHMASDPNRIIATYISNRQDAPTGNPDNIFDNNASTELVYKNPNRIDVGTYVGVKYSNPITLNNVEFLMGANSNPNDTMQKAKIQYTVDGREWIDLEEGVEYTMPGAIKVENLDLKVRGVRLIATEARENTWLGVRDINVNKKEDSNSGVEF
-0.245

Identify glycan array binding signal (z-score) associated with the binder Epa6 (Candida glabrata), Q6DTM7_CANGB (protein) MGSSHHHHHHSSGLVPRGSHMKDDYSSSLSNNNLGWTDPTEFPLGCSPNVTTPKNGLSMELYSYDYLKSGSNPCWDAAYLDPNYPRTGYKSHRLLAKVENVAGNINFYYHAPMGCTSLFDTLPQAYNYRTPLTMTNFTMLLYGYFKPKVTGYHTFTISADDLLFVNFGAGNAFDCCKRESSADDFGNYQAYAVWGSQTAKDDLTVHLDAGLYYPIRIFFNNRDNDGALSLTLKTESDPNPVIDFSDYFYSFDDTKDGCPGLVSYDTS
-0.304

Identify glycan array binding signal (z-score) associated with the binder CV-2L (Chromobacterium violaceum), Q7NX84 (protein) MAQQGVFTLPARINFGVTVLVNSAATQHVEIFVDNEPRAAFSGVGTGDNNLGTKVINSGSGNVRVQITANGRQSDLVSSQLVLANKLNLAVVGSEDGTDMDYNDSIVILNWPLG
1.49

Origin of measurements: the supplement of paper PMC8728848
